# TEST SUMMARY: Pharmacokinetics, oral gavage
# CONDITION DESCRIPTION: female, Swiss Webster, mouse, plasma, po, 200 mg/kg, plasma concentration, Average, PO 200 mg/kg, 0.5 Hour
MEASURED ENDPOINT: concentration at 0.5 h

INSERT INTO measurements (mol_smiles, measured_endpoint, reported_result) VALUES
  ('CCc1ccccc1-c1nc(CN[C@@H]2C[C@@H]3C[C@H]([C@H]2C)C3(C)C)c(C)o1', 'concentration at 0.5 h', '252 ng/mL');

###

# TARGET OR TEST SYSTEM: UniProt Q25861
# Sequence (Q25861 1-541): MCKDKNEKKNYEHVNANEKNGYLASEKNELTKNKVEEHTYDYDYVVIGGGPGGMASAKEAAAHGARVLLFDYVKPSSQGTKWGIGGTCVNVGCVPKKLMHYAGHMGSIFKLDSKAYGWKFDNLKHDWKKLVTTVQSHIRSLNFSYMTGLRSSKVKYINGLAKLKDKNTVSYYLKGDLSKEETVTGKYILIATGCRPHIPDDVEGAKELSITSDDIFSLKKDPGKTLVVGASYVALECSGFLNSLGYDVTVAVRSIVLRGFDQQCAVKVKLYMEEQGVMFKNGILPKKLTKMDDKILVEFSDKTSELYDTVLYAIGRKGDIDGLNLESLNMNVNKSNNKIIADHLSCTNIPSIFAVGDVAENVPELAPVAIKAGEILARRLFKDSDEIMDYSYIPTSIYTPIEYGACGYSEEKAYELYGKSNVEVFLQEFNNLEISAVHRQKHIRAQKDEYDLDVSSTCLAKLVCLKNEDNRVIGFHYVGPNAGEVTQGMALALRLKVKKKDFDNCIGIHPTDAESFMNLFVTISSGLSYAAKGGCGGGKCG
MEASURED ENDPOINT: IC50

INSERT INTO measurements (mol_smiles, reported_result) VALUES
  ('C[C@@H]1[C@H]2C[C@@H](C[C@H]1NC(=O)Cc1nc3ccccc3n1C1CCCCC1)C2(C)C', '32.9 µM');

###

# TEST SUMMARY: Pharmacokinetics, intraperitoneal administration
# Format: in vivo, Swiss Webster mice
# CONDITION DESCRIPTION: male, Swiss Webster, mouse, plasma, ip, 100 mg/kg, mice, 100 mg/kg i.p., 30 min
MEASURED ENDPOINT: concentration at 30 min

INSERT INTO assay_data (compound, reported_result) VALUES
  ('CCc1ccccc1-c1nc(CN[C@@H]2C[C@@H]3C[C@H]([C@H]2C)C3(C)C)c(C)o1 [Compound 2]', '4.8 µM'),
  ('Cc1oc(-c2ccc3c(c2)OCO3)nc1CN[C@@H]1C[C@@H]2C[C@H]([C@H]1C)C2(C)C [Compound 1]', '4.11 µM');

###

# Lookup of reported IC50 keyed by entry
# TARGET OR TEST SYSTEM: Human TrxR1 (Homo sapiens, UniProt Q16881)
# Construct: made in house
# Sequence (Q16881 1-499 isoform Q16881-5): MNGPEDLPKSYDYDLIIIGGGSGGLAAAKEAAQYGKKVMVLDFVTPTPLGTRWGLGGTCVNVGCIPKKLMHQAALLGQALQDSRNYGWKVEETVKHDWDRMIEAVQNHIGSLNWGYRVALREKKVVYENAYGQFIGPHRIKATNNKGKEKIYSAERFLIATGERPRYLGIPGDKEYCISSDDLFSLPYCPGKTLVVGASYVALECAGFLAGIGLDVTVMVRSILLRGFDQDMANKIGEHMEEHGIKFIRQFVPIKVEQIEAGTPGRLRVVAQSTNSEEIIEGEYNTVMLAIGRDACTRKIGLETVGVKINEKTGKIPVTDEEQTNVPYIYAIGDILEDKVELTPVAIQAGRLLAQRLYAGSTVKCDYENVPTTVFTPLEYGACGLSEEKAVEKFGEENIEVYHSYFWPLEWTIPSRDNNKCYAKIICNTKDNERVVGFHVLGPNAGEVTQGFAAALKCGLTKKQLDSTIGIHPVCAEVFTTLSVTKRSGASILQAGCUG
# TEST SUMMARY: Human TrxR1 enzyme inhibition (DTNB reduction)
# Format: biochemical
# CONDITION DESCRIPTION: 6 h preincubation; read-out: Human TrxR1 IC50 (µM) or inhibition (%) at 66.7 µM: IC50
MEASURED ENDPOINT: IC50

INSERT INTO assay_data (mol_smiles, reported_result) VALUES
  ('Cc1oc(-c2ccc3c(c2)OCO3)nc1CN[C@@H]1C[C@@H]2C[C@H]([C@H]1C)C2(C)C', '37 µM'),
  ('CCc1ccccc1-c1nc(CN[C@@H]2C[C@@H]3C[C@H]([C@H]2C)C3(C)C)c(C)o1', '50 µM'),
  ('Cc1oc(-c2ccccc2)nc1CN[C@@H]1C[C@@H]2C[C@H]([C@H]1C)C2(C)C', '42.7 µM'),
  ('Cc1oc(C2CCCCC2)nc1CN[C@@H]1C[C@@H]2C[C@H]([C@H]1C)C2(C)C', '19 µM');

###

Measured inhibition at 50 µM values are reported for all entries that follow.
# TARGET OR TEST SYSTEM: BmTrxR (Brugia malayi, UniProt A0A1I9G0T9)
# Sequence (A0A1I9G0T9 entry or part of it, added parts left off): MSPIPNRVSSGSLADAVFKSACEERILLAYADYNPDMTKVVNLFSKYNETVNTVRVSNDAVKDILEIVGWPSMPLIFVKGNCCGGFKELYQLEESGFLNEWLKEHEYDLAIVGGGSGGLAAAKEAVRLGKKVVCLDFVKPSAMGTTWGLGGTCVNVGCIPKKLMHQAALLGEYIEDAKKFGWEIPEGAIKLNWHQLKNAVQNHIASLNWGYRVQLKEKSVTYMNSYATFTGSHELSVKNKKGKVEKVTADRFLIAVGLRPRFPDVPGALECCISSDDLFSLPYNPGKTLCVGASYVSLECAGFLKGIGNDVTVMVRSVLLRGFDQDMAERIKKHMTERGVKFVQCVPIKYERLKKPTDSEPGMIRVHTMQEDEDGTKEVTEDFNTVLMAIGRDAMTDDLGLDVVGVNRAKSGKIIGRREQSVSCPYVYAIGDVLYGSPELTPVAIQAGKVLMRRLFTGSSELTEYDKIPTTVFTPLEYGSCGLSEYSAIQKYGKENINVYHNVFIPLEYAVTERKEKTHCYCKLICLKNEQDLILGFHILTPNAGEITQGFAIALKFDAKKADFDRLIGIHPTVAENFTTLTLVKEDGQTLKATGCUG
# TEST SUMMARY: B. malayi TrxR enzyme inhibition
# Assay type: biochemical
# CONDITION DESCRIPTION: read-out: BmTrxR % inhibition at 50 µM; 50 µM, the highest concentration tested
MEASURED ENDPOINT: inhibition at 50 µM (%)

INSERT INTO measurements (molecule, reported_result) VALUES
  ('C[C@@H]1[C@H]2C[C@@H](C[C@H]1NCc1nc3ccccc3n1C1CCCCCC1)C2(C)C [Compound 8]', 67.7),
  ('CCc1ccccc1-c1nc(CN[C@@H]2C[C@@H]3C[C@H]([C@H]2C)C3(C)C)c(C)o1 [Compound 2]', 13),
  ('Cc1oc(C2CCCCC2)nc1C(=O)N[C@@H]1C[C@@H]2C[C@H]([C@H]1C)C2(C)C [Compound 7]', 11),
  ('Cc1oc(-c2ccc3ccccc3c2)nc1CNC1CCCCCC1 [Compound 5]', 9);

###

# Test system: TGR in newly transformed schistosomula (NTS)
# TEST SUMMARY: TGR inhibition in NTS with TRFS-Green fluorescent probe;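 note: untreated reference is NTS exposed to TRFS-Green probe alone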
# Assay type: cell-based, S. mansoni
# CONDITION DESCRIPTION: NTS, 1hr, 5 µM
Reported TGR inhibition visualized by TRFS-Green, Average is given for each of the following compounds.
MEASURED ENDPOINT: TGR inhibition visualized by TRFS-Green, Average

INSERT INTO assay_data (mol_smiles, target_or_test_system, reported_result) VALUES
  ('C[C@@H]1[C@H]2C[C@@H](C[C@H]1NCc1nc3ccccc3n1C1CCCCCC1)C2(C)C', 'TGR in newly transformed schistosomula (NTS)', 11538.5),
  ('C[C@@H]1[C@H]2C[C@@H](C[C@H]1NCc1nc3ccccc3n1C)C2(C)C', 'TGR in newly transformed schistosomula (NTS)', 11939.5),
  ('Cc1oc(C2CCCCC2)nc1CN[C@@H]1C[C@@H]2C[C@H]([C@H]1C)C2(C)C', 'TGR in newly transformed schistosomula (NTS)', 12224.5),
  ('Cc1oc(-c2ccc3c(c2)OCO3)nc1CN[C@@H]1C[C@@H]2C[C@H]([C@H]1C)C2(C)C', 'TGR in newly transformed schistosomula (NTS)', 10571.8),
  ('Cc1oc(C2CCCCC2)nc1C(=O)N[C@@H]1C[C@@H]2C[C@H]([C@H]1C)C2(C)C', 'TGR in newly transformed schistosomula (NTS)', 12657),
  ('CCc1ccccc1-c1nc(CN[C@@H]2C[C@@H]3C[C@H]([C@H]2C)C3(C)C)c(C)o1', 'TGR in newly transformed schistosomula (NTS)', 10460.5);

###

In this section, each of the compounds is paired with its reported inhibition at 50 µM.
# TARGET OR TEST SYSTEM: PfTrxR (Plasmodium falciparum)
# Construct: 6-His (N); made in house; host or cells: E. coli BL21 (DE3)
# Sequence (Q25861 1-541): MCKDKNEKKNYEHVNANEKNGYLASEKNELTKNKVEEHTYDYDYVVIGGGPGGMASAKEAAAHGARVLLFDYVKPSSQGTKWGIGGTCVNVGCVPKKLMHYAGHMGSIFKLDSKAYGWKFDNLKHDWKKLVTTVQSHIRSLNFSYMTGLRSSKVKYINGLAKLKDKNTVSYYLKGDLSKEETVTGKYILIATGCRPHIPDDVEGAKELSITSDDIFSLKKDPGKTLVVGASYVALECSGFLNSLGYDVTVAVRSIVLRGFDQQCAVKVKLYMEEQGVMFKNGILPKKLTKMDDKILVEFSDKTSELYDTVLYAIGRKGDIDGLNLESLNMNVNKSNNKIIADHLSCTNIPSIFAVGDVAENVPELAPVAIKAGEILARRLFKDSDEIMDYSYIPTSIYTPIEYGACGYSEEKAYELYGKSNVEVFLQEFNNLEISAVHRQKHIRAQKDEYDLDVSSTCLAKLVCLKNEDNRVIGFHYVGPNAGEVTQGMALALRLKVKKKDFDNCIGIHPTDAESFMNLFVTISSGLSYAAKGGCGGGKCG
# TEST SUMMARY: P. falciparum TrxR enzyme inhibition
# Type: biochemical
MEASURED ENDPOINT: inhibition at 50 µM

INSERT INTO measurements (compound, target_or_test_system, reported_result) VALUES
  ('CC1C(NCc2cn(C3OCC(O)C(O)C3O)c3ccccc23)CC2CC1C2(C)C (stereo not drawn)', 'PfTrxR (Plasmodium falciparum)', '16.2%'),
  ('Cc1oc(C2CCCCC2)nc1CN[C@@H]1C[C@@H]2C[C@H]([C@H]1C)C2(C)C', 'PfTrxR (Plasmodium falciparum)', '18.1%'),
  ('CCc1ccccc1-c1nc(CN[C@@H]2C[C@@H]3C[C@H]([C@H]2C)C3(C)C)c(C)o1', 'PfTrxR (Plasmodium falciparum)', '-32.7%'),
  ('Cc1oc(-c2ccc3ccccc3c2)nc1CNC1CCCCCC1', 'PfTrxR (Plasmodium falciparum)', '-1.37%'),
  ('C[C@@H]1[C@H]2C[C@@H](C[C@H]1NCc1nc3ccccc3n1C1CCCCCC1)C2(C)C', 'PfTrxR (Plasmodium falciparum)', '-0.523%'),
  ('Cc1oc(C2CCCCC2)nc1C(=O)N[C@@H]1C[C@@H]2C[C@H]([C@H]1C)C2(C)C', 'PfTrxR (Plasmodium falciparum)', '10.8%');
